Each record here notes measured pKd.
Target: T1, MFN2-HR2 domain (residues 678–757) (human, UniProt O95140 678-757)
T1 chain: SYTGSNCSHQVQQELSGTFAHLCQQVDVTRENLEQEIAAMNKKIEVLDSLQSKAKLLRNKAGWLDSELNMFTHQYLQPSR
Assay: MST
Where no end group is shown, it is not given here.
Notebook: values listed as pKd are -log10 of the concentration (mol/L).

QIAEAVRLIMDSLHMAAR (also: 'Gly' in name not defined) [367–384Gly peptide]; 5.52

Field: next binder
May I ask what pKd has been recorded for QDRLKFIDKQLELLAQDYKLR (also: 'Gly' in name not defined) [398–418Gly peptide] ?
5.82
